Origin of the recorded values: PubChem BioAssay AID2060912

Field: viability, T/C. Provide a value for each of the molecules that follow.
Tested on: HUVEC/MSC spheroids viability
PROTOCOL NOTES: Human HUVEC/MSC cell line growth inhibition [KRAS2];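 note: percent of DMSO vehicle control luminescence so 100% = untreated viability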
TEST SETTINGS: second compound 1 µM; first compound 0.0316 µM; hits give low values
Kindly answer with a numeric value in %, unit omitted.

The reported viability, T/C of the molecule COC(=O)c1ccc2c(C(=Nc3ccc(N(C)C(=O)CN4CCN(C)CC4)cc3)c3ccccc3)c(O)[nH]c2c1 + C=CC(=O)N1CCN(c2nc(=O)n(-c3c(C)ccnc3C(C)C)c3nc(-c4c(O)cccc4F)c(F)cc23)C(C)C1 was 88.4

Query COC(=O)c1ccc2c(C(=Nc3ccc(N(C)C(=O)CN4CCN(C)CC4)cc3)c3ccccc3)c(O)[nH]c2c1 + COc1cc2nc(C)nc(NC(C)c3cc(N)cc(C(F)(F)F)c3)c2cc1OC1CCOC1 yields viability, T/C of 80.1

Lab book: viability, T/C of CCNC(=O)CC1N=C(c2ccc(Cl)cc2)c2cc(OC)ccc2-n2c(C)nnc21 (centres undefined) + CC1OCC2(CCN(c3cnc(Sc4ccnc(N)c4Cl)c(N)n3)CC2)C1N noted as 79.3

viability, T/C for CN(C)C/C=C/C(=O)Nc1cc2c(Nc3ccc(F)c(Cl)c3)ncnc2cc1O[C@H]1CCOC1 + COc1cc2nc(C)nc(NC(C)c3cc(N)cc(C(F)(F)F)c3)c2cc1OC1CCOC1 is 91.6

Data point: Cn1nccc1Nc1nccc(-c2cc3c(s2)C(C)(C)N(CCN2CCOCC2)C3=O)n1 + C=CC(=O)N1CCN(c2nc(=O)n(-c3c(C)ccnc3C(C)C)c3nc(-c4c(O)cccc4F)c(F)cc23)C(C)C1 ; viability, T/C = 99.8

Looking up COC(=O)c1ccc2c(C(=Nc3ccc(N(C)C(=O)CN4CCN(C)CC4)cc3)c3ccccc3)c(O)[nH]c2c1 + CC1OCC2(CCN(c3cnc(Sc4ccnc(N)c4Cl)c(N)n3)CC2)C1N , I found its viability, T/C recorded as 74.3

Looking up COc1cc2nccc(Oc3ccc(NC(=O)C4(C(=O)Nc5ccc(F)cc5)CC4)cc3)c2cc1OC + CNCc1ccccc1-c1csc(C(C)Nc2nc(C)nc3cc(OC)c(OC)cc23)c1 , I found its viability, T/C recorded as 69.6

Sample COc1cc(Nc2ncc3c(n2)-c2ccc(Cl)cc2C(c2c(F)cccc2OC)=NC3)ccc1C(=O)O + C=CC(=O)N1CCN(c2nc(=O)n(-c3c(C)ccnc3C(C)C)c3nc(-c4c(O)cccc4F)c(F)cc23)C(C)C1 ; viability, T/C observed: 122

Lab note: CC(C)n1nc(-c2ccc3oc(N)nc3c2)c2c(N)ncnc21 + COc1cc2nc(C)nc(NC(C)c3cc(N)cc(C(F)(F)F)c3)c2cc1OC1CCOC1 gave viability, T/C of 51

// sample CC(C)NCC(C(=O)N1CCN(c2ncnc3c2C(C)CC3O)CC1)c1ccc(Cl)cc1 (centres undefined) + CC1OCC2(CCN(c3cnc(Sc4ccnc(N)c4Cl)c(N)n3)CC2)C1N , its viability, T/C was 89.6

Recorded viability, T/C (molecule Cn1nccc1Nc1nccc(-c2cc3c(s2)C(C)(C)N(CCN2CCOCC2)C3=O)n1 + COc1cc2nc(C)nc(NC(C)c3cc(N)cc(C(F)(F)F)c3)c2cc1OC1CCOC1 ): 85.6

The value of viability, T/C measured for the molecule CC(C)n1nc(-c2ccc3oc(N)nc3c2)c2c(N)ncnc21 + CC1OCC2(CCN(c3cnc(Sc4ccnc(N)c4Cl)c(N)n3)CC2)C1N turned out to be 33.3

Record summary for CC1OCC2(CCN(c3cnc(Sc4ccnc(N)c4Cl)c(N)n3)CC2)C1N (centres undefined) + COc1cc2nc(C)nc(NC(C)c3cc(N)cc(C(F)(F)F)c3)c2cc1OC1CCOC1 : reported viability, T/C = 83.6

The recorded viability, T/C for entry COc1cc(Nc2ncc3c(n2)-c2ccc(Cl)cc2C(c2c(F)cccc2OC)=NC3)ccc1C(=O)O + CNCc1ccccc1-c1csc(C(C)Nc2nc(C)nc3cc(OC)c(OC)cc23)c1 equals 75.5
